biological target: BTK (Homo sapiens (Human)); experiment: In vitro BTK kinase assay: BTK-POLYGAT-LS ASSAY
Sequence (Q06187 whole entry): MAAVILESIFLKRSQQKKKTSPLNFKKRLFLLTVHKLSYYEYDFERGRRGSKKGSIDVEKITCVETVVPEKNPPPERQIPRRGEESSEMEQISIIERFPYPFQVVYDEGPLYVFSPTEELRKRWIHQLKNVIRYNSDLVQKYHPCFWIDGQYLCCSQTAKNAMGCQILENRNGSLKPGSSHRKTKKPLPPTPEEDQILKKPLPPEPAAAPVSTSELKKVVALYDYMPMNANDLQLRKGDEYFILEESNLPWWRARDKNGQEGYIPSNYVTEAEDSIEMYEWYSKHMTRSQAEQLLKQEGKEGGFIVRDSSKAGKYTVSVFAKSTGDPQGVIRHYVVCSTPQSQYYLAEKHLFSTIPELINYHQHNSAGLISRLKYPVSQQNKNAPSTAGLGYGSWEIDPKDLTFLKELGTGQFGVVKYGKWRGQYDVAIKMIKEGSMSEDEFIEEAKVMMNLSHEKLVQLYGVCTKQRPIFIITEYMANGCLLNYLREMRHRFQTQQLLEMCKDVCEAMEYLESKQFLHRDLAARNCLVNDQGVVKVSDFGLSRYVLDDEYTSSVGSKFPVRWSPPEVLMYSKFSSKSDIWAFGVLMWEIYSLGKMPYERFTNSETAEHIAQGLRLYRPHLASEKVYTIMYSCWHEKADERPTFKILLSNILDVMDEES
pIC50: −log10 of the molar value.
MEASURED_PROPERTY: pIC50

Form field - read-out: pIC50; system: BTK (Homo sapiens (Human)); submitted item: CCCNc1ncnc(N2CCC[C@@H](N3CCCC(Nc4cc(F)cc(Cl)c4)C3=O)C2)c1F (stereo partly shown) [compound 288]
5.00 to 6.00

Please give the result for Nc1ncnc(N2CCC(F)C(N3CCCC(Nc4cc(F)cc(Cl)c4)C3=O)C2)c1F (stereo not shown) [compound 340] too.
6.00 to 7.00

Now the same for O=C(Nc1ccccc1)Nc1csc(C2CCCN(c3ncnc4[nH]ccc34)C2)n1 (stereo not shown) [compound 106]
5.00 to 6.00

Param item: O=C(Nc1cccc(C2CCCN(c3ncnc4[nH]ccc34)C2)c1)Nc1ccccc1N1CCC(F)(F)C1 (stereo not shown) [compound 168]
6.00 to 7.00

Next molecule up: O=C(Nc1cccc(C2CCCN(c3ncnc4[nH]ccc34)C2)c1)Nc1c(F)cccc1N1CCCC1=O (stereo not shown) [Cmpd 51]
5.00 to 6.00

Would you kindly repeat that for O=C(Nc1cccc(C2CN(c3ncnc4[nH]ccc34)CCN2CCO)c1)Nc1ccccc1N1CCCC1 (stereo not shown) [compound 124] ?
6.00 to 7.00

Next entry: O=C(Nc1cccc(Cl)c1)Nc1cccc(C2CCCN(c3ncnc4[nH]ccc34)C2)c1 (stereo not shown) [Cmpd 26]
5.00 to 6.00

Proceed to O=C(Nc1cccc(C2CCCN(c3ncnc4[nH]ccc34)C2)c1)Nc1cccc2cc[nH]c12 (stereo not shown) [compound 211]
5.00 to 6.00

Same again, this time with O=C(CCc1ccccc1)Nc1cccc(C2CCCN(c3ncnc4[nH]ccc34)C2)c1 (stereo not shown) [Cmpd 23]
5.00 to 6.00

Here is the next molecule: N#Cc1c(N)ncnc1N1CCCC(c2ccc(OC(F)(F)F)c(NC(=O)c3ccccc3Cl)c2)C1 (stereo not shown) [compound 145]
6.00 to 7.00

Again, but for O=C(Nc1cc(C2CCCN(c3ncnc4[nH]ccc34)C2)ccc1OC(F)(F)F)c1ccccc1F (stereo not shown) [Cmpd 89]
5.00 to 6.00

Another molecule to check: COc1cccc(NC(=O)Nc2cccc(C3CCCN(c4ncnc5[nH]ccc45)C3)c2)c1 (stereo not shown) [compound 187]
5.00 to 6.00

Similarly, Nc1ncnc(N2CC[C@@H](O)[C@H](N3CCC[C@H](Nc4cc(Cl)cc(Cl)c4)C3=O)C2)c1F [compound 328] ?
5.00 to 6.00

Ok, now O=C(Nc1cccc(C2CCCN(c3ncnc4[nH]ccc34)C2)c1)Nc1c(Cl)cccc1C(F)(F)F (stereo not shown) [compound 161]
6.00 to 7.00

Further, for O=C(NCC1COCCO1)Nc1cccc(C2CCCN(c3ncnc4[nH]ccc34)C2)c1 (stereo not shown) [compound 214] ?
5.00 to 6.00

// next record CN(C)Cc1ccccc1NC(=O)Nc1cccc(C2CCCN(c3ncnc4[nH]ccc34)C2)c1 (stereo not shown) [Cmpd 63]
5.00 to 6.00
